Recorded values, source ChEMBL document CHEMBL5576074.

Target: Ectonucleotide pyrophosphatase/phosphodiesterase family member 1 (Homo sapiens)
Sequence (P22413 whole entry): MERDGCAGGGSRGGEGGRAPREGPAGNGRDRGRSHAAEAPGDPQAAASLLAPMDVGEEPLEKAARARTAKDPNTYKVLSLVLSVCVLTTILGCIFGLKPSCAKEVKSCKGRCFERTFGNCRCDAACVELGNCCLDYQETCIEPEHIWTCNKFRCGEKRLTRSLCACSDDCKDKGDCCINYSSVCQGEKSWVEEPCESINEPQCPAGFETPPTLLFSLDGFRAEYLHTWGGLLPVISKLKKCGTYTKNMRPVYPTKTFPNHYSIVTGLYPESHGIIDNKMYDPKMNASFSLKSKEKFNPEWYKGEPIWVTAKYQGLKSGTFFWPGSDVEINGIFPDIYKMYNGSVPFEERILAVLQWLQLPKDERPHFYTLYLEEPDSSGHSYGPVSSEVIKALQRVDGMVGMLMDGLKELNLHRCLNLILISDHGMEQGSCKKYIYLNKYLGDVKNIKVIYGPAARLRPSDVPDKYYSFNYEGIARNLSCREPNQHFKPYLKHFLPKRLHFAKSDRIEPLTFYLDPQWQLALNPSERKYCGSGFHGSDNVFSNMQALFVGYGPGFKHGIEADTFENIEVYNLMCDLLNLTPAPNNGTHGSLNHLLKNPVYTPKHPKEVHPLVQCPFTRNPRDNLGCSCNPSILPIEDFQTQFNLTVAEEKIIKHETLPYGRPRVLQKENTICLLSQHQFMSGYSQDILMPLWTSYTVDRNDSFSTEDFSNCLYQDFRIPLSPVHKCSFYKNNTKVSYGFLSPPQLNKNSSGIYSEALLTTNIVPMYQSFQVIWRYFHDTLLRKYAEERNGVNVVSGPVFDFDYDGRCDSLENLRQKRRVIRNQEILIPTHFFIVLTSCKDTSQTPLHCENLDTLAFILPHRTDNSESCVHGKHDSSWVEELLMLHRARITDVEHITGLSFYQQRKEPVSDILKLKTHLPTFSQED
Test: Inhibition of ENPP1 (unknown origin) assessed as reduction in ATP hydrolysis by AMP-Glo assay
Measured IC50 accompanies every entry in the list below.
Could you give the number and then its unit, please?

Solved entries:
**Q:** Param item = Cc1nc2ncnn2c(N(C)C)c1Cc1cccc(N)c1 ; retrieve measured IC50.
**A:** 0.85 µM

**Q:** Value lookup for IC50; key = Cc1nc2ncnn2c(N(C)C)c1Cc1cccc(O)c1
**A:** 1.8 µM

Now take the following compound into account.
**Q:** I am curious: what IC50 value has been reported for Cc1nc2ncnn2c(NCc2ccc(C(=O)O)cc2)c1Cc1cccc(N)c1 ?
**A:** 8.6 µM
